- subjectOfTest: PI3K-α (PIK3CA) wild-type (WT), p110α/p85α complex (Homo sapiens)
- Construct: Recombinant, catalytically active human full length PIK3KA Wild-type and H1047R mutant; 6×His (N); purchased EMD Millipore Sigma 14-602M
- assaySummary: PI3K-alpha kinase (PIK3CA) biochemical activity, ADP-Glo, wild-type
- experimentalContext: Soy PI lipid substrate
pIC50: −log10 of the molar value.
resultType: pIC50

// returns reported pIC50 for input Cc1cc(C(C)Nc2ccccc2C(=O)O)c2oc(-c3ccc4nn(C)cc4c3)cc(=O)c2c1 (single isomer, unassigned) [Example 8] 6.00 to 6.30

// returns reported pIC50 for input Cc1cc(C(C)Nc2ccccc2C(=O)O)c2oc(-c3cc4cnccc4o3)c(C)c(=O)c2c1 (single isomer, unassigned) [Example 153] > 6.30

// returns reported pIC50 for input Cc1cc(C(C)Nc2ccc(Cl)nc2C(=O)O)c2oc(-c3ccc4cnn(C)c4c3)cc(=O)c2c1 (single isomer, unassigned) [Example 220] > 6.30

// returns reported pIC50 for input Cc1cc(C(C)Nc2ccccc2C(=O)O)c2oc(-c3ccc4c(cnn4CC(C)(C)O)c3)cc(=O)c2c1 (single isomer, unassigned) [Example 123] 5.30 to 6.00

// returns reported pIC50 for input Cc1cc(C(C)Nc2ccccc2C(=O)O)c2oc(-c3ccn4cc(C)nc4c3)cc(=O)c2c1 (single isomer, unassigned) [Example 3] 5.30 to 6.00

// returns reported pIC50 for input Cc1cc(C(C)Nc2ccccc2C(=O)O)c2oc(-c3ccc4c(c3)OC(F)(F)O4)cc(=O)c2c1 (single isomer, unassigned) [Example 64] 5.30 to 6.00

----------
- subjectOfTest: PI3K-α (PIK3CA) H1047R mutant, p110α/p85α complex (Homo sapiens, UniProt P42336, H1047R)
- Construct: Recombinant, catalytically active human full length PIK3KA Wild-type and H1047R mutant; 6×His (N); purchased EMD Millipore Sigma 14-792M
- Sequence (P42336 whole entry H1047R): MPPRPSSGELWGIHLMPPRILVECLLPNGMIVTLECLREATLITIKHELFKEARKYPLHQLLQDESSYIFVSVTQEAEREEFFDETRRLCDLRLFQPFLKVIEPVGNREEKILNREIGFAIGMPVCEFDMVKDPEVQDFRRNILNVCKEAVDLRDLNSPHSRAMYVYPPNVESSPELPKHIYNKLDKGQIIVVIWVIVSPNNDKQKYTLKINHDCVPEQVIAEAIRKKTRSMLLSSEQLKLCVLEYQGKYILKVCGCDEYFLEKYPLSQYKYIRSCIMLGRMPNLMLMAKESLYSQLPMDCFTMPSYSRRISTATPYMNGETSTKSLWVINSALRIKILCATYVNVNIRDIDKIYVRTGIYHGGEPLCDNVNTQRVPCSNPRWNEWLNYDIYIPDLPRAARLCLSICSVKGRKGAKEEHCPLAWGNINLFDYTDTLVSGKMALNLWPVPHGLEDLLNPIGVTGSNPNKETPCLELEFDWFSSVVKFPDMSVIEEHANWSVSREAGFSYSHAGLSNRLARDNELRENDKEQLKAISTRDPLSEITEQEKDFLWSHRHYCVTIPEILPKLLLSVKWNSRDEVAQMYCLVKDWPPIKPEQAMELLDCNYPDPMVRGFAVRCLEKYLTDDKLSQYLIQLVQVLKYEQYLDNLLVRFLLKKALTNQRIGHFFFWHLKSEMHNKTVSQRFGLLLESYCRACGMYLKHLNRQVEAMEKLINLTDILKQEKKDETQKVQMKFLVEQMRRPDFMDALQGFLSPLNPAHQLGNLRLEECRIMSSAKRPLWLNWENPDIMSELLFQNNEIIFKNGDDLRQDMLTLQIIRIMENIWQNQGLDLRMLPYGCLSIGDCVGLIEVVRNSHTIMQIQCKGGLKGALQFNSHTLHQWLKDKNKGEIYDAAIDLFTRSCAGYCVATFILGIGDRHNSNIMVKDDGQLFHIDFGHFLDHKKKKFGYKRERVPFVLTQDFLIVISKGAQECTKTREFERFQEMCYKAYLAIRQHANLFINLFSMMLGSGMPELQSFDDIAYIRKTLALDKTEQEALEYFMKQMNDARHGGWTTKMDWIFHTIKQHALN
- Sequence (P27986 whole entry partner): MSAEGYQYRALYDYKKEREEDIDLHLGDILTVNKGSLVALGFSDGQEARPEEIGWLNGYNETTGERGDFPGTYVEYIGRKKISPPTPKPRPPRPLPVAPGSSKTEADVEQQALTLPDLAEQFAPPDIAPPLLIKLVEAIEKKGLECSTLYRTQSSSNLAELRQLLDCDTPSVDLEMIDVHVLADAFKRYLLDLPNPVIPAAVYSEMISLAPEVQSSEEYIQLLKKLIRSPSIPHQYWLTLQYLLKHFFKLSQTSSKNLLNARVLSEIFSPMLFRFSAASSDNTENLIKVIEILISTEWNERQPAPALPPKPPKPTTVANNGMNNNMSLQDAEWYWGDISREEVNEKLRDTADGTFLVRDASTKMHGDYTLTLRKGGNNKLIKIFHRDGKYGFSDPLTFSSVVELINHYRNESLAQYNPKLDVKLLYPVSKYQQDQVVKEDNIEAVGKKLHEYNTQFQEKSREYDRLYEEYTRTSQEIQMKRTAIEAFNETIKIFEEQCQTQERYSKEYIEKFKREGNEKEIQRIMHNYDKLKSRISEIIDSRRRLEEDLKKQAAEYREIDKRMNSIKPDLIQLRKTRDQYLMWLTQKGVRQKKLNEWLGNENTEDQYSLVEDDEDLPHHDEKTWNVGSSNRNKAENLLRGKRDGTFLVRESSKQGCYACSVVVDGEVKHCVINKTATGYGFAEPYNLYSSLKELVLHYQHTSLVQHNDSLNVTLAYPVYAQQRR
- assaySummary: PI3K-alpha kinase (PIK3CA) biochemical activity, ADP-Glo, H1047R mutant
- experimentalContext: Soy PI lipid substrate
Please go through the items and note down their IC50.

// returns reported IC50 for input Cc1cc(C(C)Nc2ccccc2C(=O)O)c2oc(-c3ccc4cc[nH]c4c3)cc(=O)c2c1 (stereo not drawn) [Example 18] < 500 nM

// returns reported IC50 for input Cc1cc([C@@H](C)Nc2cccc(F)c2C(=O)O)c2oc(-c3ccc4nc(C)sc4n3)cc(=O)c2c1 [Example 257] < 500 nM

// returns reported IC50 for input Cc1cc(C(C)Nc2ccccc2C(=O)O)c2oc(-c3nccc4cnn(C)c34)cc(=O)c2c1 (single isomer, unassigned) [Example 96] 1000 to 5000 nM

// returns reported IC50 for input Cc1cc(C(C)Nc2ccccc2C(=O)O)c2oc(-c3cc4cnccc4o3)cc(=O)c2c1 (single isomer, unassigned) [Example 22] < 500 nM

// returns reported IC50 for input Cc1cc(C(C)Nc2ccccc2C(=O)O)c2oc(-c3ccc4c(c3)CN(C)C4=O)cc(=O)c2c1 (single isomer, unassigned) [Example 32] > 10000 nM

// returns reported IC50 for input Cc1cc(C(C)Nc2ccc(Cl)nc2C(=O)O)c2oc(-c3cc(C)c4nn(C)cc4c3)cc(=O)c2c1 (single isomer, unassigned) [Example 188] < 500 nM
